# METHOD_SUMMARY: in vivo
# RECORDED_CONDITIONS: rat, po, 10 mg/kg
READOUT_KIND: bioavailability (%)

I. OCCN1CCN(Cc2cc3nc(-c4cccc(O)c4)nc(N4CCOCC4)c3s2)CC1
II. CN1CCN(Cc2cc3nc(-c4cccc(O)c4)nc(N4CCOCC4)c3s2)CC1
In the pair I and II , the larger recorded bioavailability belongs to which? Label of pick, please. II
(II: 2%, I: 0%)

###

# METHOD_SUMMARY: in vitro
# RECORDED_CONDITIONS: CD1, mouse, liver microsomes
# Description: Metabolic stability in CD1 mouse liver microsomes at 10 uM after 30 mins
READOUT_KIND: remaining at 0.5 h, 10 µM (%)

Answered examples (4):
1. CN(C)Cc1cc2nc(-c3cccc(O)c3)nc(N3CCOCC3)c2s1 ... 32
2. CN1CCN(Cc2cc3nc(-c4cccc(O)c4)nc(N4CCOCC4)c3s2)CC1 ... 85
3. Cc1cc2nc(-c3cccc(O)c3)nc(N3CCOCC3)c2s1 ... 64
4. CN1CCN(Cc2cc3nc(-c4cccc5[nH]ncc45)nc(N4CCOCC4)c3s2)CC1 ... 81

1. OCCN1CCN(Cc2cc3nc(-c4cccc(O)c4)nc(N4CCOCC4)c3s2)CC1
2. COCCN(C)Cc1cc2nc(-c3cccc(O)c3)nc(N3CCOCC3)c2s1
3. Cc1csc2c(N3CCOCC3)nc(-c3cccc(O)c3)nc12
4. Oc1cccc(-c2nc(N3CCOCC3)c3sccc3n2)c1
Hi! Can you put these in order of remaining at 0.5 h, 10 µM, lowest number first? # the answer lists labels in the order requested 3, 2, 4, 1
(3: 5%, 2: 13%, 4: 25%, 1: 90%)
